# Post Mortem Results: No of adult fluke listing for each entry below
test system: sheep liver fluke (Fasciola hepatica); assay: Flukicidal activity in sheep infected with sheep liver fluke: faecal egg count and post mortem adult fluke count after single dose (Table II); format: in vivo; settings: sheep liver; 12.5 mg/kg oral; killed day 14
Answer using only a numeral; do not append any unit.

Examples with answers:
COMPOUND: CC(c1cc(Cl)cc(Cl)c1O)c1cc(F)cc(Cc2cc(F)cc(Br)c2O)c1O (stereo not drawn) [Compound 46]
RECORDED_NUMBER: 0

COMPOUND: Oc1c(Br)cc(F)cc1Cc1cc(F)cc(Cc2cc(F)cc(Br)c2O)c1O [Compound 22]
RECORDED_NUMBER: 0

Exercise: Give Post Mortem Results: No of adult fluke for CC(c1cc(F)cc(Br)c1O)c1cc(Cl)cc(C(C)c2cc(F)cc(Br)c2O)c1O (stereo not drawn) [Compound 40]
Key: 11

Exercise: Give Post Mortem Results: No of adult fluke for Oc1c(Br)cc(Br)cc1Cc1cc(F)cc(Cc2cc(Br)cc(Br)c2O)c1O [Compound 14]
Key: 0

Exercise: Give Post Mortem Results: No of adult fluke for Oc1c(Br)cc(Br)cc1Cc1cc(Cl)cc(Cc2cc(Br)cc(Br)c2O)c1O [Compound 11]
Key: 12

Exercise: Give Post Mortem Results: No of adult fluke for Oc1c(Cl)cc(Cl)cc1Cc1cc(F)cc(Cc2cc(Cl)cc(Cl)c2O)c1O [Compound 18]
Key: 0
